Test system: Mycobacterium tuberculosis Erdman (autoluminescent)
Experiment: GRinf, maximum normalised growth rate inhibition (unitless (-1 to 1)); higher = less effect (negative = killing)
Settings: in vitro model: butyrate; time point: terminal (~4-5 doublings, model-specific)
readout_kind: GRinf
// response body must contain only the number

CC(C)/N=c1\cc2n(-c3ccc(Cl)cc3)c3ccccc3nc-2cc1Nc1ccc(Cl)cc1; -0.0492
COc1nc2ccc(Br)cc2cc1[C@@H](c1ccccc1)[C@@](O)(CCN(C)C)c1cccc2ccccc12; -0.138
CC[C@@H](CO)NCCN[C@@H](CC)CO; 0.173
O=[N+]([O-])c1cn2c(n1)OC[C@@H](OCc1ccc(OC(F)(F)F)cc1)C2; -0.114

Could you now consider this next compound?
Sample COc1c(N2C[C@@H]3CCCN[C@@H]3C2)c(F)cc2c(=O)c(C(=O)O)cn(C3CC3)c12 ; GRinf observed: 0.0197

* * *

Test system: Mycobacterium tuberculosis Erdman (autoluminescent)
Assay: Einf, fitted maximum growth inhibition of three-drug combination (fraction); higher = stronger maximal inhibition
Settings: in vitro model: acidic pH 5.7; time point: terminal (~4-5 doublings, model-specific)
readout_kind: Einf
// response body must contain only the number

COc1nc2ccc(Br)cc2cc1[C@@H](c1ccccc1)[C@@](O)(CCN(C)C)c1cccc2ccccc12 [bedaquiline] + CC[C@@H](CO)NCCN[C@@H](CC)CO [ethambutol] + CO[C@H]1/C=C/O[C@@]2(C)Oc3c(C)c(O)c4c(O)c(c(/C=N/N5CCN(C6CCCC6)CC5)c(O)c4c3C2=O)NC(=O)/C(C)=C\C=C\[C@H](C)[C@H](O)[C@@H](C)[C@@H](O)[C@@H](C)[C@H](OC(C)=O)[C@@H]1C [rifapentine]; 0.98
CC(C)/N=c1\cc2n(-c3ccc(Cl)cc3)c3ccccc3nc-2cc1Nc1ccc(Cl)cc1 [clofazimine] + NNC(=O)c1ccncc1 [isoniazid] + CO[C@H]1/C=C/O[C@@]2(C)Oc3c(C)c(O)c4c(O)c(c(/C=N/N5CCN(C6CCCC6)CC5)c(O)c4c3C2=O)NC(=O)/C(C)=C\C=C\[C@H](C)[C@H](O)[C@@H](C)[C@@H](O)[C@@H](C)[C@H](OC(C)=O)[C@@H]1C [rifapentine]; 0.989
CC(C)/N=c1\cc2n(-c3ccc(Cl)cc3)c3ccccc3nc-2cc1Nc1ccc(Cl)cc1 [clofazimine] + CC(=O)NC[C@H]1CN(c2ccc(N3CCOCC3)c(F)c2)C(=O)O1 [linezolid] + CO[C@H]1/C=C/O[C@@]2(C)Oc3c(C)c(O)c4c(O)c(c(/C=N/N5CCN(C6CCCC6)CC5)c(O)c4c3C2=O)NC(=O)/C(C)=C\C=C\[C@H](C)[C@H](O)[C@@H](C)[C@@H](O)[C@@H](C)[C@H](OC(C)=O)[C@@H]1C [rifapentine]; 0.98
CC(C)/N=c1\cc2n(-c3ccc(Cl)cc3)c3ccccc3nc-2cc1Nc1ccc(Cl)cc1 [clofazimine] + CC(=O)NC[C@H]1CN(c2ccc(N3CCOCC3)c(F)c2)C(=O)O1 [linezolid] + CO[C@H]1/C=C/O[C@@]2(C)Oc3c(C)c(O)c4c(O)c(c(/C=N/N5CCN(C)CC5)c(O)c4c3C2=O)NC(=O)/C(C)=C\C=C\[C@H](C)[C@H](O)[C@@H](C)[C@@H](O)[C@@H](C)[C@H](OC(C)=O)[C@@H]1C [rifampicin]; 0.981

Could you now consider this next compound?
Sample COc1nc2ccc(Br)cc2cc1[C@@H](c1ccccc1)[C@@](O)(CCN(C)C)c1cccc2ccccc12 [bedaquiline] + CC[C@@H](CO)NCCN[C@@H](CC)CO [ethambutol] + NC(=O)c1cnccn1 [pyrazinamide] ; Einf observed: 0.97

Hello, the source for this data is the supplement of paper PMC8617591, in case you need it.
